# measurement-target: HSA (human serum albumin) (Homo sapiens)
# Construct: commercial HSA (Shanghai Yuanye); amine-coupled to CM5 chip
# Sequence (P02768 25-609): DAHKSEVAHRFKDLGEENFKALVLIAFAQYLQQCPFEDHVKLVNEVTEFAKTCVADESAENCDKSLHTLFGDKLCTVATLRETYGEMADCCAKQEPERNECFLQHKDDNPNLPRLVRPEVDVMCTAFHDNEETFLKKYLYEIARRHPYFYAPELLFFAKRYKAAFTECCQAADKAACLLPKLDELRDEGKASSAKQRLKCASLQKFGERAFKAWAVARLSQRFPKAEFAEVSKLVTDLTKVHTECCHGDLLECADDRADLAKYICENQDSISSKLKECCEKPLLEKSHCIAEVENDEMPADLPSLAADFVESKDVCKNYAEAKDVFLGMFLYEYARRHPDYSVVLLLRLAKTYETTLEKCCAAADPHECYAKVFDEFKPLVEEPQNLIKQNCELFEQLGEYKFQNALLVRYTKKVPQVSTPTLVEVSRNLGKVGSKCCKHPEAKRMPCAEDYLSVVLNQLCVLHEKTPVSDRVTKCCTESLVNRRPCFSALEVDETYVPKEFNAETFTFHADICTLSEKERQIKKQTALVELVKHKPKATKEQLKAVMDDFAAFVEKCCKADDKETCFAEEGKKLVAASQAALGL
# assay-details: SPR (Biacore T200, immobilized protein on CM5)
measurement-kind: Kd (nM)
Give just the numeric value; nM need not be written.

Entry C=Cc1c(C)c2cc3nc(c(CC(=O)O)c4[nH]c(cc5nc(cc1[nH]2)C(C)=C5CC)c(C)c4C(=O)O)[C@@H](CCC(=O)O)[C@@H]3C [Ce6] , HSA (human serum albumin) (Homo sapiens) data, Kd value: 2120
